# Test system: ragweed (common ragweed, Ambrosia elatior)
# Assay explanation: Test D pre-/postemergence plant response
# Type: in vivo
# Condition context: Preemergence; 31 g ai/ha; scale 0 to 100 (0 no effect, 100 complete control)
Known Plant response rating, Ragweed of a selection of compounds
Write the number on its own, no unit after it.

Answered examples (2):
Just so you know, measured Plant response rating, Ragweed for Clc1cnc(Oc2ccccc2-c2cc(C3CC3)on2)nc1 came out at 0

Just so you know, measured Plant response rating, Ragweed for FC(F)c1cc(-c2c(Cl)cccc2Oc2ncc(Cl)cn2)on1 came out at 0

Please examine the following record next.
Just so you know, measured Plant response rating, Ragweed for FC(F)Oc1cccc(Oc2ncc(Cl)cn2)c1-c1cc(C(F)F)on1 came out at 0
